Where these numbers come from: the RNAGym collection of RNA variant scans (doi:10.1126/science.aae0568)

B1: tRNA (parent)
chain: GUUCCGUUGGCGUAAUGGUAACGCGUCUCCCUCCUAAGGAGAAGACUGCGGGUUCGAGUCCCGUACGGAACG

Variants of: B1
Experiment: yeast fitness relative to wild type (ratio to wild type); higher = fitter; tRNA-Arg(CCU), competitive growth, 37 C, YPD
Variants at the floor of the assay were thinned out.
MEASUREMENT LABEL: yeast fitness

Note to self: yeast fitness recorded for U8A G39C A70C was 0.751

Note to self: yeast fitness recorded for C5A G17C C27G was 0.57

Note to self: yeast fitness recorded for U19C C49A G68C was ≤ 0.5

Note to self: yeast fitness recorded for U2A C33G A42C G63A was ≤ 0.5

Note to self: yeast fitness recorded for C22A C30G C34G was ≤ 0.5

Note to self: yeast fitness recorded for U28A C33U C55G was ≤ 0.5

Note to self: yeast fitness recorded for U8A A21G was 0.681

Note to self: yeast fitness recorded for A14G U53C G67C was ≤ 0.5

Note to self: yeast fitness recorded for U3A C30G C33U G67U was ≤ 0.5

Note to self: yeast fitness recorded for A14C A36G C62U was ≤ 0.5

Note to self: yeast fitness recorded for A14C C30A C66U A70G was 0.622

Note to self: yeast fitness recorded for A36U A43C G44C G48C was ≤ 0.5

Note to self: yeast fitness recorded for C11U C22G U47C U53G was ≤ 0.5

Note to self: yeast fitness recorded for U32C C49U A65C was 0.793

Note to self: yeast fitness recorded for U19C C61U was 0.925

Note to self: yeast fitness recorded for U8G A21U C62U was ≤ 0.5

Note to self: yeast fitness recorded for C62G A65G A70U was ≤ 0.5

Note to self: yeast fitness recorded for G12C U32G C33G G48C was ≤ 0.5

Note to self: yeast fitness recorded for U7G U26C A42U C46U was 0.581

Note to self: yeast fitness recorded for A20U C22G A40G A70U was ≤ 0.5

Note to self: yeast fitness recorded for U3C G52A G68A was ≤ 0.5

Note to self: yeast fitness recorded for G39A A42G U59A was ≤ 0.5
